The values you see were collected from ChEMBL document CHEMBL1153932.

Test system: CCRF-CEM
Assay details: Antiproliferative activity against human CEM cells after 48 hrs by Coulter counting analysis
Assay type: cell-based
Assay metric: IC50 (nM)

Consider the worked cases shown below.
Structure: C=C(Br)C(=O)Nc1ccc(C(=O)/C=C/c2ccc(OC)c(OC)c2)cc1
IC50, nM: 1600

Structure: C=C(Br)C(=O)Nc1ccc(/C=C/C(=O)c2cccc3ccccc23)cc1
IC50, nM: 3100

Structure: C=C(Br)C(=O)Nc1ccc(C(=O)/C=C/c2cc(OC)cc(OC)c2)cc1
IC50, nM: 2200

Structure: C=C(Br)C(=O)Nc1ccc(C(=O)/C=C/c2ccccc2)cc1
IC50, nM: 1500

Structure: C=C(Br)C(=O)Nc1ccc(/C=C/C(=O)c2ccc(OC)cc2)cc1
IC50, nM: 1400

Structure: Nc1ccc(/C=C/C(=O)c2ccc(Cl)c(Cl)c2)cc1
IC50, nM: 15000

Structure: C=C(Br)C(=O)Nc1ccc(/C=C/C(=O)c2ccc(Cl)cc2)cc1
IC50, nM: 950

Structure: C=C(Br)C(=O)Nc1ccc(C(=O)/C=C/c2cccc(OC)c2OC)cc1
IC50, nM: 710

[I] C=C(Br)C(=O)Nc1ccc(/C=C/C(=O)c2ccc(Br)cc2)cc1
[II] COc1ccc(/C=C/C(=O)c2ccc(N)cc2)cc1
Identify the item whose IC50 is the smaller number: I or II Reply briefly: the label of your chosen item.
I
(I: 990 nM, II: 14000 nM)

###

Tested on: CCRF-CEM
Assay details: Antiproliferative activity against human CEM cells after 48 hrs by Coulter counting analysis
Format: cell-based
Assay metric: IC50 (µM)

Structure: Nc1ccc(/C=C/C(=O)c2cccc3ccccc23)cc1
Assay metric: IC50
Output unit: µM
Observed result: 22

[I] Nc1ccc(/C=C/C(=O)c2ccc(Br)cc2)cc1
[II] C=C(Br)C(=O)Nc1ccc(/C=C/C(=O)c2ccc(I)cc2)cc1
Larger number for IC50: I , or II ? Reply briefly: the label of your chosen item.
I
(I: 14 µM, II: 4 µM)

###

Test system: HeLa
Assay details: Antiproliferative activity against human HeLa cells after 48 hrs by Coulter counting analysis
Assay type: functional, cell-based
Assay metric: IC50 (µM)

Consider the worked cases shown below.
Structure: C=C(Br)C(=O)Nc1ccc(C(=O)/C=C/c2cc(OC)c(OC)c(OC)c2)cc1
Target entity: HeLa
IC50 [µM]: 0.42
//
Structure: C=C(Br)C(=O)Nc1ccc(C(=O)/C=C/c2ccc(OC)c(OC)c2)cc1
Target entity: HeLa
IC50 [µM]: 0.77
//
Structure: Nc1ccc(/C=C/C(=O)c2cccs2)cc1
Target entity: HeLa
IC50 [µM]: 15
//
Structure: COc1cc(/C=C/C(=O)c2ccc(N)cc2)cc(OC)c1OC
Target entity: HeLa
IC50 [µM]: 6.9
//
Structure: CN(C)c1ccc(/C=C/C(=O)c2ccc(N)cc2)cc1
Target entity: HeLa
IC50 [µM]: 28
//
Structure: CCOc1ccc(C(=O)/C=C/c2ccc(N)cc2)cc1
Target entity: HeLa
IC50 [µM]: 41

[A] C=C(Br)C(=O)Nc1ccc(C(=O)/C=C/c2ccc(N(C)C)cc2)cc1
[B] Nc1ccc(/C=C/C(=O)c2ccc(I)cc2)cc1
[C] Nc1ccc(/C=C/C(=O)c2ccccc2)cc1
[D] COc1ccc(/C=C/C(=O)c2ccc(N)cc2)cc1
Put these in order: smallest IC50 first, largest last. Present the labels in the sequence the task asks for.
A, D, C, B
(A: 0.61 µM, D: 8.7 µM, C: 36 µM, B: 58 µM)

[I] C=C(Br)C(=O)Nc1ccc(/C=C/C(=O)c2ccc(OCC)cc2)cc1
[II] C=C(Br)C(=O)Nc1ccc(/C=C/C(=O)c2ccccc2)cc1
[III] COc1ccc(/C=C/C(=O)c2ccc(N)cc2)c(OC)c1OC
# sort list by recorded IC50, greatest to least Present the labels in the sequence the task asks for.
III, II, I
